Experiment: Effective magnetic moment in solution from magnetic susceptibility (NMR)
Assay type: physicochemical
Details: 25° C. in D2O
measurement label: magnetic moment (μB)

> print(dat)
                                   molecule  measurement.label  units.label  observed.measurement
1  NC(=O)CN1CCCN(CC(N)=O)CCN(CC(N)=O)CCCN(CC(N)=O)CC1.[Co+2] [[Co(CCRM)]^2+]    magnetic moment           μB                   4.6
2  NC(=O)CN1CCN(CC(N)=O)CCN(CC(N)=O)CC1.[Co+2] [[Co(TCMT)]^2+]    magnetic moment           μB                   5.2
3  NC(=O)CN1CCOCCOCCN(CC(N)=O)CCOCC1.[Co+2] [[Co(NOPE)]^2+]    magnetic moment           μB                   4.1
4  NC(=O)CN1CCN(CC(N)=O)CCN(CC(N)=O)CCN(CC(N)=O)CC1.[Co+2] [[Co(TCMC)]^2+]    magnetic moment           μB                   4.5

====

Test: Dissociation of complex over time monitored by 1H NMR
Format: physicochemical
Details: 10 mM Co^II complex, 0.40 mM Na2HPO4, 25 mM K2CO3, 100 mM NaCl, pD 7.5-7.9, 12 hours at 37° C.
measurement label: % Dissociation Anions (%)

> print(dat)
                                   molecule      measurement.label  observed.measurement
1  NC(=O)CN1CCN(CC(N)=O)CCN(CC(N)=O)CC1.[Co+2] [[Co(TCMT)]^2+]  % Dissociation Anions                     5

1: NC(=O)CN1CCCN(CC(N)=O)CCN(CC(N)=O)CCCN(CC(N)=O)CC1.[Co+2] [[Co(CCRM)]^2+]
2: NC(=O)CN1CCN(CC(N)=O)CCN(CC(N)=O)CCN(CC(N)=O)CC1.[Co+2] [[Co(TCMC)]^2+]
q: For this pair, 1 and 2 , which shows a numerically higher % Dissociation Anions? Mark your answer with the label of the selected entry.
a: 1
(1: 5%, 2: 2%)
